- Target Or Test System: recombinant SARS-CoV-2 RBD with C-terminal AviTag (SARS-CoV-2, UniProt P0DTC2 319-541)
Parameter: IC50

[[record]]
binder = "R5C-A2 (competition ELISA sample) (VHH) VHH: QVQLVESGGGLVQPGGSLRLSCAASGDIFSKNAMHWVRQAPGKQREFVAGIYSDGSSLYADSVKGRFTISRDNAKNTVYLQMNSLKPEDTAVYYCAALDYSARYRTWGQGTQVTVSS"
observed = "13.7 nM"


Here is another binder to look at.
Ask | Sample MBP-5HVZ-R5C-B1-H6 (VHH, not shown: large carriers; small tags and cut ends) VHH: QVQLVESGGGLVQPGGSLRLSCAASGSGFSNNAMHWYRQAPGKQREGVAGITSGSVSFYADSVKGRFTISRDNAKNTVYLQMNSLKPEDTAVYYCAAVTGSSTGNAGQGYLTWGQGTQVTVSS — what was its IC50?
Reply | 0.3 nM
